Assignment: determine reported Activity for the given molecules.
target: Caspase-1 (Homo sapiens) (UniProt P29466); test: Inhibitory activity against human IL-1 beta converting enzyme from monocytic THP-1 cell line, activity expressed as the logarithm of the second order rate constant for inactivation; assay type: cell-based
Sequence (P29466 120-297 limits assumed): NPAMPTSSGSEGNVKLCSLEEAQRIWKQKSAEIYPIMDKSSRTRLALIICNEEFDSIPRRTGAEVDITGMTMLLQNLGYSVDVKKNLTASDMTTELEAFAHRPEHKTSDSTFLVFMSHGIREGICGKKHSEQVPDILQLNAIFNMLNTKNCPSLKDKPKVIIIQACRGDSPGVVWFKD
Sequence (P29466 317-404 limits assumed): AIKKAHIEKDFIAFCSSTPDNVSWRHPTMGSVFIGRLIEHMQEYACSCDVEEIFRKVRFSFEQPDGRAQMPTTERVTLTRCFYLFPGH
Give bare numbers.

Reference set (5 entries):
CC(C)[C@H](NC(=O)OCc1ccccc1)C(=O)N[C@@H](C)C(=O)N[C@@H](CC(=O)O)C(=O)COP(=O)(Oc1ccccc1)Oc1ccccc1 | 5.07
O=C(O)CC(NC(=O)Cn1c(-c2ccc(F)cc2)ncc(NS(=O)(=O)c2ccccc2)c1=O)C(=O)COC(=O)c1c(Cl)cccc1Cl (stereo unspecified) | 4.95
O=C(O)C[C@H](NC(=O)OCc1ccccc1)C(=O)COP(=O)(Oc1ccccc1)Oc1ccccc1 | 4.07
CC(C)[C@H](NC(=O)CCc1ccccc1)C(=O)N[C@@H](C)C(=O)N[C@@H](CC(=O)O)C(=O)COC(=O)c1c(C(F)(F)F)cccc1C(F)(F)F | 5.95
O=C(O)C[C@H](NC(=O)OCc1ccccc1)C(=O)COC(=O)c1c(Cl)cccc1Cl | 3.85

Provide Activity for all items below, preserving their order.
1. CC(C)C[C@H](NC(=O)OCc1ccccc1)C(=O)N[C@@H](Cc1ccccc1)C(=O)COP(=O)(Oc1ccccc1)Oc1ccccc1
2. CC(C)[C@H](NC(=O)CCc1ccccc1)C(=O)N[C@@H](C)C(=O)N[C@@H](CC(=O)O)C(=O)COC(=O)c1c(O)cccc1O
3. CC(C)[C@H](NC(=O)OCc1ccccc1)C(=O)N[C@@H](CC(=O)O)C(=O)COc1cc(C(F)(F)F)nn1-c1ccccc1
4. O=C(O)CC(NC(=O)Cn1c(-c2ccc(F)cc2)ncc(NC(=O)OCc2ccccc2)c1=O)C(=O)COP(=O)(Oc1ccccc1)Oc1ccccc1 (stereo unspecified)
5. Cc1cccc(C)c1C(=O)OCC(=O)[C@H](CC(=O)O)NC(=O)[C@H](C)NC(=O)[C@@H](NC(=O)CCc1ccccc1)C(C)C
6. Nc1cnc(-c2ccc(F)cc2)n(CC(=O)NC(CC(=O)O)C(=O)COC(=O)c2c(Cl)cccc2Cl)c1=O (stereo unspecified)

Data returned:
2.7
5.85
4.3
5.16
6.08
4.56

Provide Activity for all items below, preserving their order.
1. CN(C)CCCCCC(=O)Nc1cnc(-c2ccc(F)cc2)n(CC(=O)NC(CC(=O)O)C(=O)COC(=O)c2c(Cl)cccc2Cl)c1=O (stereo unspecified)
2. O=C(O)CC(NC(=O)Cn1c(-c2ccc(F)cc2)ncc(NC(=O)OCc2ccccc2)c1=O)C(=O)COc1cc(C(F)(F)F)nn1-c1ccccc1 (stereo unspecified)
3. CC(=O)N[C@@H](Cc1ccc(O)cc1)C(=O)N[C@H](C(=O)N[C@@H](C)C(=O)N[C@@H](CC(=O)O)C(=O)COC(=O)c1c(C)cccc1C)C(C)C
4. CC(C)[C@H](NC(=O)OCc1ccccc1)C(=O)N[C@@H](C)C(=O)N[C@@H](CC(=O)O)C(=O)COC(=O)c1c(Cl)cccc1Cl
5. CC(C)[C@H](NC(=O)CCc1ccccc1)C(=O)N[C@@H](C)C(=O)N[C@@H](CC(=O)O)C(=O)COC(=O)c1c(F)c(F)c(F)c(F)c1F

Data returned:
1. 4.95
2. 5.2
3. 6.04
4. 5.61
5. 6.04
